Tested on: HT29 colon
test_name: NCI tumour cell line growth inhibition, 48 h; in the data active = GI50 below about 0.43 µM; inactive = the rest
A correct response names exactly one class from 1 (yes) = active, 0 (no) = inactive

O=C(NCCCCOCC#Cc1ccccc1C#CCS(=O)(=O)c1ccccc1)c1cc2ccccc2[nH]1 0 (no)
C1C[OH+]CC[OH+]CC[OH+]CC[OH+]CC[OH+]CC[OH+]1.[Cl-].[Nb+5] 0 (no)
CCCCOc1ccc(/C=N/Nc2cc(C)nc3ccc(Cl)cc23)cc1 0 (no)
COc1ccc2[nH]c(O)c(/C=c3/cc4c(c(-c5ccc(F)cc5)n3)=Nc3ccccc3-4)c2c1 0 (no)
COC(=O)[C@]12CC[C@@H](C)[C@H](C)[C@@H]1C1=CC[C@@H]3[C@@]4(C)CC(=O)[C@H](OC(=O)c5ccco5)[C@@]5(C)COC(=C45)C[C@@]3(C)[C@]1(C)CC2 0 (no)
O=S(=O)(O)ONC1=NCCN1 0 (no)

[in] GET /call?item= CCOC(=S)SCN1C(=O)c2ccccc2S1(=O)=O returns the recorded outcome of this test.
[out] 0 (no)

[in] # repeat for CN1CCN(CCOc2ccc(-c3cnc4c(-c5ccc(F)cc5)cnn4c3)cc2)CC1
[out] 0 (no)

[in] # repeat for Cc1cc(S(=O)(=O)Nc2nc3cc(Cl)ccc3o2)c(SCc2ccccc2)cc1Cl
[out] 0 (no)

[in] # repeat for Cc1sc2ncn(Cc3ccc(Cl)c(Cl)c3)c(=O)c2c1C
[out] 0 (no)

[in] # repeat for C#Cc1cc2c(N)c(C(=O)c3cc(OC)c(OC)c(OC)c3)[nH]c2cc1OC
[out] 1 (yes)

====

TGI overview
Test system: LOX IMVI melanoma
test_name: NCI tumour cell line growth inhibition, 48 h

# example entries with known answers
compound	tested_system	TGI
Cc1nc2c(=O)[nH]c3ccc(Cl)cc3c2o1	LOX IMVI melanoma	> 100 µM
Cc1cc(C)c(N=Nc2c(O)c(S(=O)(=O)O)cc3cc(S(=O)(=O)O)ccc23)cc1C	LOX IMVI melanoma	> 100 µM
O=C(Oc1cccc(Cl)c1)c1cc2cc(CCl)ccc2oc1=O	LOX IMVI melanoma	> 100 µM

[in] Field request: TGI | item: CN(C)CC1CCCC/C1=N/OC(=O)c1ccc(Cl)c(Cl)c1 (stereo unspecified)
[out] > 100 µM

[in] # repeat for O=C(c1ccccc1)C1C(C(=O)c2ccccc2)C(c2ccccc2)N(c2ccccc2)C1c1ccccc1 (stereo unspecified)
[out] > 100 µM

[in] # repeat for COc1cc(-c2nn(-c3ccc(NC(=O)c4cc(Cl)cc(Cl)c4)cc3)cc2-c2ccncc2)ccc1Cl
[out] > 100 µM

[in] # repeat for N=C(c1cccs1)C1(N2CCCCC2)CCCCC1
[out] 47.9 µM

[in] # repeat for COc1cc2c(c(OC)c1OC)-c1ccc(SC)cc1C(=O)CC2
[out] > 100 µM

[in] # repeat for CC(/C=N/NC1=NCCCN1)=N\NC1=NCCCN1
[out] > 100 µM

[in] # repeat for CCN(CC)CCNc1ccc2ncn3c4cc(=O)ccc4c(O)c1c23
[out] 5.91 µM

[in] # repeat for Cc1cc(O)c(C(c2ccncc2)c2c(O)cc(C)[nH]c2=O)c(=O)[nH]1
[out] > 100 µM

====

Test system: SW-620 colon
test_name: NCI tumour cell line growth inhibition, 48 h
parameter_measured: TGI (µM)
The reply should be a number in µM, with the unit left off.

[in] Give the reported TGI for COc1ccc(C[C@@H]2OC3(C=CC(=O)C=C3)O[C@H]2Cc2ccc(OC)cc2)cc1 (system: SW-620 colon).
[out] 0.383

[in] # repeat for Oc1ccc(Cl)cc1-c1cc(-c2ccc(F)cc2)n[nH]1
[out] 10.5

====

System: KM12 colon
test_name: NCI tumour cell line growth inhibition, 48 h
parameter_measured: TGI

# example entries with known answers
compound	TGI
CC1=CC(=O)/C(=C/n2c(=S)[nH]c3ccccc32)C(=O)O1	> 100 µM
COc1ccc2c(c1)OCCC1=C2SCC2(C)CCN=C12 (stereo unspecified)	> 100 µM
CCOP(=O)(OCC)C(C)(C)OC(=O)NC#N	> 100 µM
COc1cc2c(cc1OC)-c1ncc3cc4c(cc3c1C2)OCO4	> 100 µM
O=C(/C(=C/c1ccccc1)c1ccccc1)N1c2ccccc2CC1c1c[nH]c2ccccc12 (stereo unspecified)	> 100 µM

Attention now turns to another entry.
[in] Give the reported TGI for O=C(Nc1cccc(C(F)(F)F)c1)c1cc(Br)cc(Br)c1O (system: KM12 colon).
[out] > 10 µM

====

TGI overview
Tested on: U251 CNS
test_name: NCI tumour cell line growth inhibition, 48 h

compound	TGI
COc1cc(C2c3cc4c(cc3[C@@H](Nc3ccc(N)cc3)C3COC(=O)[C@H]23)OCO4)cc(OC)c1O (stereo partly drawn)	4.2 µM
CN(C)CCNc1nc2c(no[n+]2[O-])c2ccccc12	83.8 µM
COc1ccc2c(c1)CC[C@@H]1[C@@H]2CC[C@]2(C)C=C(/C=C/C(=O)c3ccccc3)C[C@@H]12	31.3 µM
Cc1sc2ncn(Cc3ccc(Cl)c(Cl)c3)c(=O)c2c1C	> 100 µM
OC(c1ccccc1)(c1cccnc1)C(O)(c1ccccc1)c1cccnc1 (stereo not drawn)	> 100 µM

[in] Give the reported TGI for O=[N+]([O-])c1ccc2ncccc2c1CCc1c([N+](=O)[O-])ccc2ncccc12 (system: U251 CNS).
[out] > 100 µM

[in] # repeat for OC(CN1CCCCC1)c1ccc(/C=C/c2ccc(Cl)cc2)cc1 (stereo not drawn)
[out] > 100 µM

[in] # repeat for Cc1sc2nc3n(c(=O)c2c1C)N=C(c1ccc([N+](=O)[O-])cc1)CS3
[out] > 100 µM

[in] # repeat for COC(=O)C1C2CC3C(OC(=O)C31)C2OC(=O)[C@](OC)(c1ccccc1)C(F)(F)F (stereo partly drawn)
[out] > 100 µM

[in] # repeat for Oc1ccc(Cl)cc1-c1cc(-c2ccc(F)cc2)n[nH]1
[out] 5 µM

[in] # repeat for N#Cc1c2c(c(-c3cccs3)n(C3OC(CO)C(O)C(O)C3O)c1=S)CCc1ccccc1-2 (stereo not drawn)
[out] > 100 µM

[in] # repeat for CCOP(=O)(OCC)C(Nc1ccc(F)cc1)c1ccccc1 (stereo not drawn)
[out] > 100 µM

[in] # repeat for O=C1C[C@H](c2ccc(O)c(O)c2)Oc2cc(O)cc(O)c21
[out] > 100 µM

====

Test system: SK-OV-3 ovarian
test_name: NCI tumour cell line growth inhibition, 48 h
TGI overview

# example entries with known answers
compound	TGI
O=C(/C(=C/c1ccccc1)c1ccccc1)N1c2ccccc2CC1c1c[nH]c2ccccc12 (stereo not given)	> 100 µM
O=C1c2ccn(CCCCN3CCC(O)CC3)c2C(=O)c2c1c(O)c1ccccc1c2O	> 74.6 µM
CCOC(=O)Cc1csc(NC(=O)COC(=O)c2ccc(OC)cc2)n1	> 100 µM
CC1(C)c2ccccc2C(O)C12CCC(=O)CC2 (stereo not given)	> 100 µM

Attention now turns to another entry.
[in] Field request: TGI | item: COc1ccc(C(=O)O/N=C2/CCC/C2=C\c2ccccc2)cc1
[out] > 100 µM

====

Tested on: RXF 393 renal
test_name: NCI tumour cell line growth inhibition, 48 h; in the data active = GI50 below about 0.43 µM; inactive = the rest
A correct response names exactly one class from true (1) = active, false (0) = inactive

Worked set:
CCOc1cc(C(C)(C)C)ccc1C1=N[C@@](C)(c2ccc(Cl)cc2)[C@@](C)(c2ccc(Cl)cc2)N1C(=O)N1CCN(CCS(C)(=O)=O)CC1 false (0)
Cn1ccnc1C[N-]Cc1nccn1C.O=[N+]([O-])[O-].O=[N+]([O-])[O-].[Cu+2] false (0)
CCCCCCNC(=O)Oc1ccc(/C(=C(\C)c2ccccc2)c2ccc(OCCN(CC)CC)cc2)cc1 false (0)
O=[N+]([O-])c1cc(F)c2cccnc2c1O false (0)
Cc1c(C(=O)O[C@H]2[C@@H]3[C@H](C)CC[C@H]3[C@]3(C)O[C@@]2(C2CCCCC2)C[C@H]3OC(=O)CO)ccc2ccccc12 true (1)

[in] GET /call?item= COc1cc(-c2nn(-c3ccc(NC(=O)c4cc(Cl)cc(Cl)c4)cc3)cc2-c2ccncc2)ccc1Cl returns the recorded outcome of this test.
[out] false (0)

[in] # repeat for COc1cc2c(cc1OC)-c1ncc3cc4c(cc3c1C2)OCO4
[out] false (0)

[in] # repeat for C#CCN(Cc1nc2cc(C(F)(F)F)ccc2nc1-c1ccccc1)c1ccc(F)c(F)c1
[out] false (0)

[in] # repeat for C1CC[N-]CC1.CC(=N\O)/C(C)=N/O.CC(=N\O)/C(C)=N/O.[CH2-]CCN1CCOCC1.[Co+2]
[out] false (0)

====

Test system: SNB-19 CNS
test_name: NCI tumour cell line growth inhibition, 48 h
parameter_measured: TGI

compound	tested_system	reported_result
CN1C(=O)N(C)C2(CCN(CCCCCCF)CC2)C1=O	SNB-19 CNS	> 100 µM
C#Cc1cc2c(N)c(C(=O)c3cc(OC)c(OC)c(OC)c3)[nH]c2cc1OC	SNB-19 CNS	> 100 µM
c1ccc2nc(OCCN3CC3)ccc2c1	SNB-19 CNS	43.6 µM

Attention now turns to another entry.
[in] Field request: TGI | item: CCOC(=O)c1ccccc1-c1c2ccc(=[N+](C)C)cc-2oc2cc(N(C)C)ccc12
[out] 16.7 µM
